System: original-SARS2 (P2VeroE6 virus, SARS-CoV-2_DK-AHH1)
PROTOCOL_DESCRIPTION: microbe, parasite or virus in culture
Assay type: cell-based
MEASUREMENT_CONDITIONS: Severe acute respiratory syndrome coronavirus 2, Huh7.5
ASSAY_ENDPOINT: pEC50
Field pEC50 (float): negative decimal logarithm of the concentration in molar.

Reported pEC50 ( CCC(CC)COC(=O)[C@H](C)N[P@](=O)(OC[C@H]1O[C@@](C#N)(c2ccc3c(N)ncnn23)[C@H](O)[C@@H]1O)Oc1ccccc1 [Remdesivir] ) = 7.52
